All values here come from patent EP0195496A2.

- measuredTarget: cyclic AMP phosphodierterase
- protocolDescription: cyclic AMP phosphodiesterase activity in rat gastrocnemius muscle homogenates (Dixon plot)
- Type: biochemical
- measurementConditions: compounds of formula (III); homogenates of rat gastocnemius muscle; 0.31 uM cyclic AMP as substrate; Dixon plot extrapolation; read-out: Apparent Ki value
readoutLabel: pKi
Units for pKi: none; it is -log10 of a concentration expressed in mol/L.

Solved entries:
[
  {
    "compoundStructure": "CCCCn1c(=O)c2c(ncn2CC2(C)OCCO2)n(CCCC)c1=O",
    "endpointResult": 4.54
  },
  {
    "compoundStructure": "CCCCn1c(=O)c2c(ncn2CC2(C)OCCO2)n(CC)c1=O",
    "endpointResult": 4.35
  },
  {
    "compoundStructure": "CCCCn1c(=O)c2c(ncn2CC(C)(OC)OC)n(CCCC)c1=O",
    "endpointResult": 4.57
  }
]

Shift focus to the following entry.
Any idea what pKi was measured for CCn1c(=O)c2c(ncn2CC2(C)OCCO2)n(CC)c1=O ?
4.14

====

- measuredTarget: cyclic AMP phosphodierterase
- protocolDescription: cyclic AMP phosphodiesterase activity in rat gastrocnemius muscle homogenates (Dixon plot)
- Format: biochemical
- measurementConditions: compounds of formula (V); homogenates of rat gastocnemius muscle; 0.31 uM cyclic AMP as substrate; Dixon plot extrapolation; read-out: Apparent Ki value
readoutLabel: Ki

Any idea what Ki was measured for CCCCn1c(=O)n(CCCCC(C)=O)c(=O)c2c1ncn2CC(C)=O [formula (V) R^12=C4H9] ?
3.9 µM

====

- measuredTarget: cyclic AMP phosphodierterase
- protocolDescription: cyclic AMP phosphodiesterase activity in rat gastrocnemius muscle homogenates (Dixon plot)
- Format: biochemical
- measurementConditions: compounds of formula (I); homogenates of rat gastocnemius muscle; 0.31 uM cyclic AMP as substrate; Dixon plot extrapolation; read-out: Apparent Ki value.
pKi: −log10 of the molar value.
Where pKi equals or exceeds 5, the correct label is 1; where it does not, the label is -1.

Record excerpt, results attached:
[
  {
    "molecule": "CCCCn1c(=O)c2c(ncn2C(C)C(C)=O)n(CC)c1=O (stereo not drawn)",
    "categoryLabel": -1
  },
  {
    "molecule": "CCCCn1c(=O)c2c(ncn2C(C)C(C)=O)n(CCCC)c1=O (stereo not drawn)",
    "categoryLabel": -1
  },
  {
    "molecule": "CCCCn1c(=O)c2c(ncn2CC(C)=O)n(CC)c1=O [formula (I) R^1=C4H9 R^2=C2H5 X=-CH2-]",
    "categoryLabel": -1
  },
  {
    "molecule": "CCCCn1c(=O)c2c(ncn2CCC(C)=O)n(CCCC)c1=O [formula (I) R^1=C4H9 R^2=C4H9 X=-(CH2)2-, 1,3-di-n-butyl-7-(3-oxobutyl) xanthine]",
    "categoryLabel": -1
  },
  {
    "molecule": "CCCCn1c(=O)c2c(ncn2CCCC(C)=O)n(CCCC)c1=O [formula (I) R^1=C4H9 R^2=C4H9 X=-(CH2)3-]",
    "categoryLabel": -1
  },
  {
    "molecule": "CCCn1c(=O)c2c(ncn2CCC(C)=O)n(CCC)c1=O [formula (I) R^1=C3H7 R^2=C3H7 X=-(CH2)2-]",
    "categoryLabel": -1
  },
  {
    "molecule": "CC(=O)Cn1cnc2c1c(=O)n(C(C)C)c(=O)n2C(C)C",
    "categoryLabel": 1
  },
  {
    "molecule": "CCCCn1c(=O)c2c(ncn2CC(C)=O)n(CCC)c1=O [formula (I) R^1=C4H9 R^2=C3H7 X=-CH2-]",
    "categoryLabel": 1
  },
  {
    "molecule": "CCCCn1c(=O)c2c(ncn2C(C)CC(C)=O)n(CCCC)c1=O (stereo not drawn)",
    "categoryLabel": -1
  },
  {
    "molecule": "CCCCn1c(=O)c2c(ncn2CCCCC(C)=O)n(CCCC)c1=O [formula (I) R^1=C4H9 R^2=C4H9 X=-(CH2)4-, 1,3-di-n-butyl-7-(5-oxohexyl)xanthine]",
    "categoryLabel": -1
  }
]

Now consider the entry below.
Item CCCCn1c(=O)c2c(ncn2CC(C)=O)n(CCCC)c1=O [formula (I) R^1=C4H9 R^2=C4H9 X=-CH2-, 1,3-di-n-butyl-7-(2-oxopropyl) xanthine] with pKi of 5 or above?
1
